- Test system: CCRF-CEM
- ASSAY PROTOCOL: Cytotoxicity against human CEM cells assessed as dead cells at 1 uM after 24 hrs
- Format: functional
Binary call on Activity with cut-off 80%: strictly below means Y, and equality or higher means N.

[[record]]
smiles = "O=C1/C(=C/c2ccc(Cl)cc2)CN(C(=O)C(=O)N2C/C(=C\\c3ccc(Cl)cc3)C(=O)/C(=C/c3ccc(Cl)cc3)C2)C/C1=C\\c1ccc(Cl)cc1"
target = "CCRF-CEM"
label_class = "Y"

[[record]]
smiles = "O=C1/C(=C\\c2ccc(F)cc2)CN(C(=O)CC(=O)N2C/C(=C\\c3ccc(F)cc3)C(=O)/C(=C/c3ccc(F)cc3)C2)C/C1=C\\c1ccc(F)cc1"
target = "CCRF-CEM"
label_class = "N"

[[record]]
smiles = "COc1cc(/C=C2\\CN(C(=O)C(=O)N3C/C(=C\\c4cc(OC)c(OC)c(OC)c4)C(=O)/C(=C/c4cc(OC)c(OC)c(OC)c4)C3)C/C(=C\\c3cc(OC)c(OC)c(OC)c3)C2=O)cc(OC)c1OC"
target = "CCRF-CEM"
label_class = "N"

[[record]]
smiles = "COc1ccc(/C=C2\\CN(C(=O)C(=O)N3C/C(=C\\c4ccc(OC)c(OC)c4)C(=O)/C(=C/c4ccc(OC)c(OC)c4)C3)C/C(=C\\c3ccc(OC)c(OC)c3)C2=O)cc1OC"
target = "CCRF-CEM"
label_class = "N"

[[record]]
smiles = "O=C1/C(=C/c2ccc(F)cc2)CN(C(=O)C(=O)N2C/C(=C\\c3ccc(F)cc3)C(=O)/C(=C/c3ccc(F)cc3)C2)C/C1=C\\c1ccc(F)cc1"
target = "CCRF-CEM"
label_class = "N"

[[record]]
smiles = "O=C1/C(=C\\c2ccc(Cl)cc2)CN(C(=O)CC(=O)N2C/C(=C\\c3ccc(Cl)cc3)C(=O)/C(=C/c3ccc(Cl)cc3)C2)C/C1=C\\c1ccc(Cl)cc1"
target = "CCRF-CEM"
label_class = "N"

[[record]]
smiles = "O=C1/C(=C\\c2ccccc2)CN(CCCN2C/C(=C\\c3ccccc3)C(=O)/C(=C/c3ccccc3)C2)C/C1=C\\c1ccccc1"
target = "CCRF-CEM"
label_class = "Y"

[[record]]
smiles = "COc1ccc(/C=C2/CN(C(=O)CC(=O)N3C/C(=C\\c4ccc(OC)c(OC)c4)C(=O)/C(=C/c4ccc(OC)c(OC)c4)C3)C/C(=C\\c3ccc(OC)c(OC)c3)C2=O)cc1OC"
target = "CCRF-CEM"
label_class = "Y"

[[record]]
smiles = "Cc1ccc(/C=C2\\CN(C(=O)C(=O)N3C/C(=C\\c4ccc(C)cc4)C(=O)/C(=C/c4ccc(C)cc4)C3)C/C(=C\\c3ccc(C)cc3)C2=O)cc1"
target = "CCRF-CEM"
label_class = "Y"

[[record]]
smiles = "Cc1ccc(/C=C2/CN(C(=O)CC(=O)N3C/C(=C\\c4ccc(C)cc4)C(=O)/C(=C/c4ccc(C)cc4)C3)C/C(=C\\c3ccc(C)cc3)C2=O)cc1"
target = "CCRF-CEM"
label_class = "N"

[[record]]
smiles = "COc1ccc(/C=C2\\CN(C(=O)C(=O)N3C/C(=C\\c4ccc(OC)cc4)C(=O)/C(=C/c4ccc(OC)cc4)C3)C/C(=C\\c3ccc(OC)cc3)C2=O)cc1"
target = "CCRF-CEM"
label_class = "Y"

